assay-target: human XIAP_BIR3 domain purified protein (Homo sapiens)
Construct: purchased R & D
Sequence (P98170 252-356 limits assumed): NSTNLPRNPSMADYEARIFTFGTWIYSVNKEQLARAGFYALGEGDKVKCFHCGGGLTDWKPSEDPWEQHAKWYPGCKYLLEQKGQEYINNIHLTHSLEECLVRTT
method-summary: XIAP binding inhibitory activity (HTRF, b-Smac ligand)
settings: second symbol of cell; read-out: XIAP binding inhibition IC50 value
Protocol: Human XIAP binding inhibitory activity was measured by the Homogeneous Time Resolved Fluorescence (HTRF) method with using commercially available human XIAP_BIR3 domain purified protein (R & D) and as a ligand a Smac N-terminal peptide (AVPIAQK (SEQ ID NO: 1)) (hereinafter referred to as “b-Smac”; Peptide Research Laboratories, Inc.) biotinylated at the C-terminus according to a conventional method. […] The XIAP binding inhibition rate (%) of test compounds was evaluated.
pIC50: −log10 of the molar value. Where a name gives a salt, the structure may show the parent alone.
Below: a set of entries, each annotated with reported pIC50.

// below: answered molecules
molecule | pIC50
CN[C@@H](C)C(=O)N[C@H](C(=O)N1CCC[C@H]1c1nc(C(=O)c2cccc(OCCOCCOCCOc3cc(CN4CCC(Oc5ccnc6ccsc56)CC4)on3)c2)cs1)C1CCCCC1 | > 6.52
Cc1cc2ccc(C(=O)N3CCN(C(=O)CN4C[C@@H](C)NC[C@@H]4COCCOCCOCCOc4cc(CN5CCC(Oc6ccnc7ccsc67)CC5)on4)CC3)cn2c1 | > 6.52
CN[C@@H](C)C(=O)N[C@H](C(=O)N1CCN(C(=O)c2cc3cc(F)c(F)cc3n2CC(=O)N2CCOC[C@@H]2COc2cc(CN3CCC(Oc4ccnc5ccsc45)CC3)on2)CC1)C1CCCCC1 | 4.52 to 5.52
CN[C@@H](C)C(=O)N[C@H](C(=O)N1CCN(C(=O)c2c(C(=O)NCCOCCOc3cc(CN4CCC(Oc5ccnc6ccsc56)CC4)on3)c3cc(F)c(F)cc3n2C)CC1)C1CCCCC1 | 5.52 to 6.52

Record CN[C@@H](C)C(=O)N[C@H](C(=O)N1CCN(C(=O)c2cc3cc(F)c(F)cc3n2CC(=O)N2CCC[C@H]2COc2cc(CN3CCC(Oc4ccnc5ccsc45)CC3)on2)[C@@H](C)C1)C1CCCCC1 / human XIAP_BIR3 domain purified protein (Homo sapiens), pIC50 recorded as 4.52 to 5.52

Record CN[C@@H](C)C(=O)N[C@H](C(=O)N1CCN(C(=O)c2ccc3c(c2)cc(C)n3CCOCCOCCOCCOc2cc(CN3CCC(Oc4ccnc5ccsc45)CC3)on2)CC1)C1CCCCC1 / human XIAP_BIR3 domain purified protein (Homo sapiens), pIC50 recorded as 5.52 to 6.52

Record CN[C@@H](C)C(=O)N[C@H](C(=O)N1CCN(C(=O)c2c(C(=O)N(C)CCOCCOCCOc3cc(CN4CCC(Oc5ccnc6ccsc56)CC4)on3)c3cc(F)c(F)cc3n2C)CC1)C1CCCCC1 [Example 1, hydrochloride] / human XIAP_BIR3 domain purified protein (Homo sapiens), pIC50 recorded as 5.52 to 6.52

Record C[C@@H]1CN(CC(=O)N2CCN(C(=O)c3cc4cc(F)c(F)cc4n3C)C[C@H]2C)[C@@H](COCCOCCOCCOc2cc(CN3CCC(Oc4ccnc5ccsc45)CC3)on2)CN1 [Example 17, hydrochloride] / human XIAP_BIR3 domain purified protein (Homo sapiens), pIC50 recorded as > 6.52

Record CN[C@@H](C)C(=O)N[C@H](C(=O)N1CCN(C(=O)c2cc3cc(F)ccc3n2CC(=O)N2CCC[C@H]2COc2cc(CN3CCC(Oc4ccnc5ccsc45)CC3)on2)[C@@H](C)C1)C1CCCCC1 / human XIAP_BIR3 domain purified protein (Homo sapiens), pIC50 recorded as 4.52 to 5.52

Record CN[C@@H](C)C(=O)N[C@H](C(=O)N1CCN(C(=O)c2c(C(=O)NCCOCCOCCOc3cc(CN4CCC(Oc5ccnc6cc(C)sc56)CC4)on3)c3cc(F)c(F)cc3n2C)CC1)C1CCCCC1 / human XIAP_BIR3 domain purified protein (Homo sapiens), pIC50 recorded as 5.52 to 6.52

Record CN[C@@H](C)C(=O)N[C@H](C(=O)N1CCN(C(=O)c2cc3cc(F)c(F)cc3n2CC(=O)N(C)CCOCCOCCOCCOc2cc(CN3CCC(Oc4ccnc5ccsc45)CC3)on2)CC1)C1CCCCC1 [Example 24, hydrochloride] / human XIAP_BIR3 domain purified protein (Homo sapiens), pIC50 recorded as 4.52 to 5.52
